The following compounds are listed with their measured Carotid/Blood, mean values.
Test system: ApoE −/− mice, carotid artery
Assay: Biodistribution in ApoE ligation model of atherosclerosis (ligated and sham)
Assay type: in vivo
Details: ApoE Ligated, 5 min post injection

- COMPOUND: "O=C(CCN(C1(C(=O)NO)CCCC1)S(=O)(=O)c1ccc(Oc2ccc(F)cc2)cc1)NCCc1ccc(O)c([123I])c1 [Compound 24A]"
  STUDY TARGET: "ApoE −/− mice, carotid artery"
  Carotid/Blood, mean: 0.94
- COMPOUND: "NC(=O)[C@H](CCCCNC(=O)CON=Cc1ccc([18F])cc1)NC(=O)CCOCCOCCOCCOCCOCCOCCOCCOCCOCCOCCOCCNC(=O)CCOCCOCCOCCOCCOCCOCCOCCOCCOCCOCCOCCNC(=O)CCN(C1(C(=O)NO)CCCC1)S(=O)(=O)c1ccc(Oc2ccc(F)cc2)cc1 [Compound 48B]"
  STUDY TARGET: "ApoE −/− mice, carotid artery"
  Carotid/Blood, mean: 0.40
- COMPOUND: "NC(=O)[C@H](CCCCNC(=O)CON=Cc1ccc([18F])cc1)NC(=O)CCN(C1(C(=O)NO)CCCC1)S(=O)(=O)c1ccc(Oc2ccc(F)cc2)cc1 [Compound 46B]"
  STUDY TARGET: "ApoE −/− mice, carotid artery"
  Carotid/Blood, mean: 0.42
- COMPOUND: "NC(=O)[C@H](Cc1ccc(O)c([123I])c1)NC(=O)CCOCCOCCOCCOCCOCCOCCOCCOCCOCCOCCOCCNC(=O)CCOCCOCCOCCOCCOCCOCCOCCOCCOCCOCCOCCNC(=O)CCN(C1(C(=O)NO)CCCC1)S(=O)(=O)c1ccc(Oc2ccc(F)cc2)cc1 [Compound 32A]"
  STUDY TARGET: "ApoE −/− mice, carotid artery"
  Carotid/Blood, mean: 0.46

====

Tested on: Lewis lung carcinoma (LLC) tumour
Assay: Biodistribution in LLC tumour model in vivo
Parameters: species or system C57BL/6 mice
Conditions: 120 min post injection
Lab note: anything with Tumour/Muscle, mean at or over 2 counts as Met; the rest go in Not met.

- COMPOUND: "NC(=O)[C@H](CCCCNC(=O)CON=Cc1ccc([18F])cc1)NC(=O)CCN(C1(C(=O)NO)CCCC1)S(=O)(=O)c1ccc(Oc2ccc(F)cc2)cc1 [Compound 46B]"
  QUALITATIVE LABEL: "Not met"
- COMPOUND: "NCCCC[C@H](NC(=O)CCN(C1(C(=O)NO)CCCC1)S(=O)(=O)c1ccc(Oc2ccc(F)cc2)cc1)C(=O)N[C@@H](CCCCN)C(=O)N[C@@H](CCCCN)C(=O)N[C@@H](CCCCN)C(=O)N[C@@H](CCCCN)C(=O)NCCOCCOCCOCCNC(=O)COCC(=O)N[C@@H](Cc1ccc(O)c([123I])c1)C(N)=O [Compound 42A]"
  QUALITATIVE LABEL: "Met"
- COMPOUND: "NC(=O)[C@H](Cc1ccc(O)c([123I])c1)NC(=O)COCC(=O)NCCOCCOCCOCCNC(=O)[C@H](CCC(=O)O)NC(=O)[C@H](CCC(=O)O)NC(=O)[C@H](CCC(=O)O)NC(=O)[C@H](CCC(=O)O)NC(=O)[C@H](CCC(=O)O)NC(=O)CCN(C1(C(=O)NO)CCCC1)S(=O)(=O)c1ccc(Oc2ccc(F)cc2)cc1 [Compound 38A]"
  QUALITATIVE LABEL: "Not met"
- COMPOUND: "NC(=O)[C@H](Cc1ccc(O)c([123I])c1)NC(=O)CCOCCOCCOCCOCCOCCOCCOCCOCCOCCOCCOCCNC(=O)CCN(C1(C(=O)NO)CCCC1)S(=O)(=O)c1ccc(Oc2ccc(F)cc2)cc1 [Compound 44A]"
  QUALITATIVE LABEL: "Met"
- COMPOUND: "NC(=O)[C@H](CCCCNC(=O)CON=Cc1ccc([18F])cc1)NC(=O)CCOCCOCCOCCOCCOCCOCCOCCOCCOCCOCCOCCNC(=O)CCOCCOCCOCCOCCOCCOCCOCCOCCOCCOCCOCCNC(=O)CCN(C1(C(=O)NO)CCCC1)S(=O)(=O)c1ccc(Oc2ccc(F)cc2)cc1 [Compound 48B]"
  QUALITATIVE LABEL: "Met"
- COMPOUND: "NC(=O)[C@H](Cc1ccc(O)c([123I])c1)NC(=O)[C@H](CCC(=O)O)NC(=O)[C@H](CCC(=O)O)NC(=O)[C@H](CCC(=O)O)NC(=O)[C@H](CCC(=O)O)NC(=O)[C@H](CCC(=O)O)NC(=O)CCN(C1(C(=O)NO)CCCC1)S(=O)(=O)c1ccc(Oc2ccc(F)cc2)cc1 [Compound 21A]"
  QUALITATIVE LABEL: "Met"
- COMPOUND: "NC(=O)[C@H](Cc1ccc(O)c([123I])c1)NC(=O)CCOCCOCCOCCOCCOCCOCCOCCOCCOCCOCCOCCNC(=O)CCOCCOCCOCCOCCOCCOCCOCCOCCOCCOCCOCCNC(=O)CCN(C1(C(=O)NO)CCCC1)S(=O)(=O)c1ccc(Oc2ccc(F)cc2)cc1 [Compound 32A]"
  QUALITATIVE LABEL: "Met"
- COMPOUND: "O=C(CCN(C1(C(=O)NO)CCCC1)S(=O)(=O)c1ccc(Oc2ccc(F)cc2)cc1)NCCc1ccc(O)c([123I])c1 [Compound 24A]"
  QUALITATIVE LABEL: "Not met"

====

System: Lewis lung carcinoma (LLC) tumour
Experiment: Biodistribution in LLC tumour model in vivo
Set-up: species or system C57BL/6 mice
Details: 30 min post injection

- MOLECULE: "NC(=O)[C@H](Cc1ccc(O)c([123I])c1)NC(=O)CCOCCOCCOCCOCCOCCOCCOCCOCCOCCOCCOCCNC(=O)CCN(C1(C(=O)NO)CCCC1)S(=O)(=O)c1ccc(Oc2ccc(F)cc2)cc1 [Compound 44A]"
  % ID/g Tumour, mean / % ID/g: 0.5
- MOLECULE: "NC(=O)[C@H](Cc1ccc(O)c([123I])c1)NC(=O)CCOCCOCCOCCOCCOCCOCCOCCOCCOCCOCCOCCNC(=O)CCOCCOCCOCCOCCOCCOCCOCCOCCOCCOCCOCCNC(=O)CCN(C1(C(=O)NO)CCCC1)S(=O)(=O)c1ccc(Oc2ccc(F)cc2)cc1 [Compound 32A]"
  % ID/g Tumour, mean / % ID/g: 2.67
- MOLECULE: "NC(=O)[C@H](CCCCNC(=O)CON=Cc1ccc([18F])cc1)NC(=O)CCN(C1(C(=O)NO)CCCC1)S(=O)(=O)c1ccc(Oc2ccc(F)cc2)cc1 [Compound 46B]"
  % ID/g Tumour, mean / % ID/g: 0.53
- MOLECULE: "NC(=O)[C@H](Cc1ccc(O)c([123I])c1)NC(=O)[C@H](CCC(=O)O)NC(=O)[C@H](CCC(=O)O)NC(=O)[C@H](CCC(=O)O)NC(=O)[C@H](CCC(=O)O)NC(=O)[C@H](CCC(=O)O)NC(=O)CCN(C1(C(=O)NO)CCCC1)S(=O)(=O)c1ccc(Oc2ccc(F)cc2)cc1 [Compound 21A]"
  % ID/g Tumour, mean / % ID/g: 2.20
- MOLECULE: "NC(=O)[C@H](CCCCNC(=O)CON=Cc1ccc([18F])cc1)NC(=O)CCOCCOCCOCCOCCOCCOCCOCCOCCOCCOCCOCCNC(=O)CCOCCOCCOCCOCCOCCOCCOCCOCCOCCOCCOCCNC(=O)CCN(C1(C(=O)NO)CCCC1)S(=O)(=O)c1ccc(Oc2ccc(F)cc2)cc1 [Compound 48B]"
  % ID/g Tumour, mean / % ID/g: 2.33
- MOLECULE: "NCCCC[C@H](NC(=O)CCN(C1(C(=O)NO)CCCC1)S(=O)(=O)c1ccc(Oc2ccc(F)cc2)cc1)C(=O)N[C@@H](CCCCN)C(=O)N[C@@H](CCCCN)C(=O)N[C@@H](CCCCN)C(=O)N[C@@H](CCCCN)C(=O)NCCOCCOCCOCCNC(=O)COCC(=O)N[C@@H](Cc1ccc(O)c([123I])c1)C(N)=O [Compound 42A]"
  % ID/g Tumour, mean / % ID/g: 2.67

====

Test system: Lewis lung carcinoma (LLC) tumour
Test: Biodistribution in LLC tumour model in vivo
Design: species or system C57BL/6 mice
Details: 120 min post injection
Each item that follows carries a reported Tumour/Lung, mean.
QUANTITY KIND: Tumour/Lung, mean

- MOLECULE: "NC(=O)[C@H](Cc1ccc(O)c([123I])c1)NC(=O)COCC(=O)NCCOCCOCCOCCNC(=O)[C@H](CCC(=O)O)NC(=O)[C@H](CCC(=O)O)NC(=O)[C@H](CCC(=O)O)NC(=O)[C@H](CCC(=O)O)NC(=O)[C@H](CCC(=O)O)NC(=O)CCN(C1(C(=O)NO)CCCC1)S(=O)(=O)c1ccc(Oc2ccc(F)cc2)cc1 [Compound 38A]"
  QUANTITY KIND: "Tumour/Lung, mean"
  REPORTED RESULT: 0.64
- MOLECULE: "NC(=O)[C@H](Cc1ccc(O)c([123I])c1)NC(=O)[C@H](CCC(=O)O)NC(=O)[C@H](CCC(=O)O)NC(=O)[C@H](CCC(=O)O)NC(=O)[C@H](CCC(=O)O)NC(=O)[C@H](CCC(=O)O)NC(=O)CCN(C1(C(=O)NO)CCCC1)S(=O)(=O)c1ccc(Oc2ccc(F)cc2)cc1 [Compound 21A]"
  QUANTITY KIND: "Tumour/Lung, mean"
  REPORTED RESULT: 0.61
- MOLECULE: "NC(=O)[C@H](CCCCNC(=O)CON=Cc1ccc([18F])cc1)NC(=O)CCOCCOCCOCCOCCOCCOCCOCCOCCOCCOCCOCCNC(=O)CCOCCOCCOCCOCCOCCOCCOCCOCCOCCOCCOCCNC(=O)CCN(C1(C(=O)NO)CCCC1)S(=O)(=O)c1ccc(Oc2ccc(F)cc2)cc1 [Compound 48B]"
  QUANTITY KIND: "Tumour/Lung, mean"
  REPORTED RESULT: 0.77
- MOLECULE: "NCCCC[C@H](NC(=O)CCN(C1(C(=O)NO)CCCC1)S(=O)(=O)c1ccc(Oc2ccc(F)cc2)cc1)C(=O)N[C@@H](CCCCN)C(=O)N[C@@H](CCCCN)C(=O)N[C@@H](CCCCN)C(=O)N[C@@H](CCCCN)C(=O)NCCOCCOCCOCCNC(=O)COCC(=O)N[C@@H](Cc1ccc(O)c([123I])c1)C(N)=O [Compound 42A]"
  QUANTITY KIND: "Tumour/Lung, mean"
  REPORTED RESULT: 0.60
- MOLECULE: "NC(=O)[C@H](Cc1ccc(O)c([123I])c1)NC(=O)CCOCCOCCOCCOCCOCCOCCOCCOCCOCCOCCOCCNC(=O)CCOCCOCCOCCOCCOCCOCCOCCOCCOCCOCCOCCNC(=O)CCN(C1(C(=O)NO)CCCC1)S(=O)(=O)c1ccc(Oc2ccc(F)cc2)cc1 [Compound 32A]"
  QUANTITY KIND: "Tumour/Lung, mean"
  REPORTED RESULT: 0.55
